assay: NCI Yeast Anticancer Drug Screen. Data for the rad50 strain (AID 155);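 note: 0% = growth of vehicle-only cultures of the same strain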; conditions: S. cerevisiae rad50 strain growth inhibition; at 50.0 µM; hits give high values
Compounds without any hit were thinned out: in the full panel of roughly 79,000, 15% have a hit.
readout: growth inhibition (%)
All answers are understood in %, so give the number only.

Q: Tell me the measured growth inhibition of O=C1CCCCCC1Cc1cc(O)c(CC2CCCCCC2=O)cc1O (centres undefined) , please.
A: 91.8

Q: Note, next up: C[CH2][Ge]([CH2]C)([CH2]C)[O]C(=O)C([O][Ge]([CH2]C)([CH2]C)[CH2]C)c1ccccc1 (centres undefined)
A: 91.2

Q: Note, next up: Cc1ccc(O)c2c(NCCCCCCNc3cc(C)[n+](C)c4c(C)ccc(O)c34)cc(C)[n+](C)c12
A: 89

Q: Note, next up: CC(C)(C)C1=NC(=S)SC2=NC(=O)C3(NN21)c1ccccc1-c1ccccc13
A: 90.9

Origin of measurements: PubChem BioAssay (NCI)
